system: p-IKKa levels in L363 (NIK translocated multiple myeloma) cells; experiment: Assay 2: Effect of compounds on p-IKKa levels in L363 (NIK translocated multiple myeloma) cells; format: cell-based; details: Homo sapiens, L-363, 6 h, read-out: Assay 2 IC50 (nM), p-IKKa (Ser 176/180) in BAFF stimulated L363 cells with MG132, 6 h; average if tested more than once
Reported Endpoint: IC50

Solved cases below.
{"columns": ["Molecule", "Study Target", "Reported Endpoint", "Val"],
 "data": [
  ["CN1CC[C@@](O)(c2cc(-c3cccc(-c4ccnc(Nc5cnn(C6CC6)c5)n4)n3)no2)C1=O [Example 124]", "p-IKKa levels in L363 (NIK translocated multiple myeloma) cells", "IC50", "< 50 nM"],
  ["C[C@@H](O)[C@@H](Nc1nccc(-c2cccc(-c3cc([C@]4(O)CCN(C)C4=O)on3)n2)n1)c1ccccc1 [Example 152]", "p-IKKa levels in L363 (NIK translocated multiple myeloma) cells", "IC50", "50 to 500 nM"],
  ["Cc1c(Nc2nccc(-c3cccc(-c4cc([C@@]5(O)C(=O)N(C)[C@@H]6C[C@@H]65)on4)n3)n2)cnn1C [Example 241]", "p-IKKa levels in L363 (NIK translocated multiple myeloma) cells", "IC50", "50 to 500 nM"],
  ["CN1CC[C@@](O)(c2cc(-c3cccc(-c4ccnc(Nc5ccncc5F)n4)n3)no2)C1=O [Example 330]", "p-IKKa levels in L363 (NIK translocated multiple myeloma) cells", "IC50", "< 50 nM"]
]}

[in] GET /values?readout=IC50&item= C[C@H](Nc1nccc(-c2cccc(-c3cc([C@]4(O)CCN(C)C4=O)on3)n2)n1)c1ccccn1 [Example 376]
[out] 50 to 500 nM

[in] GET /values?readout=IC50&item= CN1CC[C@](O)(c2nnc(-c3cccc(-c4ccnc(Nc5cnn(C)c5Cl)n4)n3)s2)C1=O [Example 103]
[out] > 500 nM

[in] GET /values?readout=IC50&item= CN1CC[C@@](O)(c2cc(-c3cccc(-c4ccnc(NC5CCC5)n4)n3)no2)C1=O [Example 453]
[out] 50 to 500 nM

[in] GET /values?readout=IC50&item= CN1CC[C@@](O)(c2cc(-c3cccc(-c4ccnc(Nc5cnc6n5CCOCC6)n4)n3)no2)C1=O [Example 314]
[out] > 500 nM

[in] GET /values?readout=IC50&item= CCn1cc(Nc2nccc(-c3cccc(-c4cc([C@]5(O)CCN(C)C5=O)no4)n3)n2)cn1 [Example 91]
[out] < 50 nM

[in] GET /values?readout=IC50&item= C[C@H](Nc1nccc(-c2cccc(-n3cc([C@]4(O)CCN(C)C4=O)nn3)n2)n1)c1cnn(C)c1 (single isomer, unassigned) [Example 119]
[out] < 50 nM

* * *

tested on: p-IKKa levels in L363 (NIK translocated multiple myeloma) cells; test: Assay 2: Effect of compounds on p-IKKa levels in L363 (NIK translocated multiple myeloma) cells; type: cell-based; conditions: Homo sapiens, L-363, 6 h, read-out: Assay 2 IC50 (nM), p-IKKa (Ser 176/180) in BAFF stimulated L363 cells with MG132, 6 h; average if tested more than once
Reported Endpoint: IC50

{"columns": ["Molecule", "IC50"],
 "data": [
  ["CCn1ncnc1Nc1nccc(-c2cccc(-c3cc([C@]4(O)CCN(C)C4=O)on3)n2)n1 [Example 276]", "> 500 nM"],
  ["CN1CC[C@@](O)(c2cn(-c3cccc(-c4ccnc(Nc5ccn(C)n5)n4)n3)nn2)C1=O [Example 75]", "< 50 nM"],
  ["COc1ccc(Nc2nccc(-c3cccc(-c4cc([C@]5(O)CCN(C)C5=O)on4)n3)n2)cn1 [Example 285]", "< 50 nM"]
]}

[in] GET /values?readout=IC50&item= COc1nn(CC(F)F)cc1Nc1nccc(-c2cccc(-c3cc([C@@]4(O)CCN(C)C4=O)n[nH]3)n2)n1 (single isomer, unassigned) [Example 189]
[out] < 50 nM

* * *

Tested on: p-IKKa levels in L363 (NIK translocated multiple myeloma) cells
Assay: Assay 2: Effect of compounds on p-IKKa levels in L363 (NIK translocated multiple myeloma) cells
Type: cell-based
Details: Homo sapiens, L-363, 6 h, read-out: Assay 2 IC50 (nM), p-IKKa (Ser 176/180) in BAFF stimulated L363 cells with MG132, 6 h; average if tested more than once
Experimental: Assay 2: Effect of Compounds on p-IKKa Levels in L363 (NIK Translocated Multiple Myeloma) Cells All compounds tested were dissolved and serially diluted in DMSO, 1:3 dilution for 11 points in an Echo compatible plate. 100% DMSO was added to columns 12 and 24 of the plate to serve as high and low signal controls. This compound plate was used to spot 20 nL of compound or DMSO into a Greiner 384 well TC plate (781080). The final DMSO concentration was 0.3% (v/v) in cell assays. […]
# IC50 per entry

Solved cases below.
{"columns": ["Compound", "Val"],
 "data": [
  ["C[C@@H](Nc1nccc(-c2cccc(-c3cc([C@]4(O)CCN(C)C4=O)on3)n2)n1)c1cnn(C)c1 (single isomer, unassigned) [Example 69]", "< 50 nM"],
  ["Cc1ncccc1Nc1nccc(-c2cccc(-c3cc([C@]4(O)CCN(C)C4=O)on3)n2)n1 [Example 197]", "< 50 nM"],
  ["Cc1cc(Nc2nccc(-c3cccc(-n4cc([C@]5(O)CCN(C)C5=O)nn4)n3)n2)ccn1 [Example 191]", "< 50 nM"],
  ["CN1CC(F)(F)[C@@](O)(c2cc(-c3cccc(-c4ccnc(Nc5cnn6c5CCCC6)n4)n3)no2)C1=O [Example 239]", "50 to 500 nM"],
  ["CCn1cc(Nc2nccc(-c3cccc(-n4cc([C@]5(O)CCN(C)C5=O)nn4)n3)n2)cn1 [Example 335]", "< 50 nM"]
]}

[in] GET /values?readout=IC50&item= CN1CC[C@@](O)(c2cc(-c3cccc(-c4ccnc(NCCF)n4)n3)no2)C1=O [Example 364]
[out] 50 to 500 nM

[in] GET /values?readout=IC50&item= CN1C(=O)[C@](O)(c2cc(-c3cccc(-c4ccnc(Nc5cnn6c5CCC6)n4)n3)no2)[C@H]2C[C@H]21 [Example 133]
[out] < 50 nM

* * *

# IC50 per entry
system: p-IKKa levels in L363 (NIK translocated multiple myeloma) cells; test: Assay 2: Effect of compounds on p-IKKa levels in L363 (NIK translocated multiple myeloma) cells; assay type: cell-based; conditions: Homo sapiens, L-363, 6 h, read-out: Assay 2 IC50 (nM), p-IKKa (Ser 176/180) in BAFF stimulated L363 cells with MG132, 6 h; average if tested more than once

{"columns": ["Compound", "Val"],
 "data": [
  ["CC(Nc1nccc(-c2cccc(-c3cc([C@]4(O)CCN(C)C4=O)on3)n2)n1)c1ncccn1 (stereo partly shown) [Example 377]", "> 500 nM"]
]}

[in] GET /values?readout=IC50&item= COc1cn(C)nc1C(C)Nc1nccc(-c2cccc(-c3cc([C@]4(O)CCN(C)C4=O)on3)n2)n1 (stereo partly shown) [Example 392]
[out] > 500 nM

[in] GET /values?readout=IC50&item= CO[C@H]1COCC[C@@H]1Nc1nccc(-c2cccc(-c3cc([C@]4(O)CCN(C)C4=O)on3)n2)n1 (stereo in doubt) [Example 355]
[out] > 500 nM

[in] GET /values?readout=IC50&item= C[C@H](Nc1nccc(-c2cccc(-c3cc([C@]4(O)CCN(C)C4=O)on3)n2)n1)c1cccnc1 [Example 374]
[out] 50 to 500 nM

* * *

test system: p-IKKa levels in L363 (NIK translocated multiple myeloma) cells; test: Assay 2: Effect of compounds on p-IKKa levels in L363 (NIK translocated multiple myeloma) cells; type: cell-based; conditions: Homo sapiens, L-363, 6 h, read-out: Assay 2 IC50 (nM), p-IKKa (Ser 176/180) in BAFF stimulated L363 cells with MG132, 6 h; average if tested more than once
# IC50 per entry

{"columns": ["Cpd Smiles", "IC50"],
 "data": [
  ["CCS(=O)(=O)N1CCC(Nc2nccc(-c3cccc(-c4cc([C@]5(O)CCN(C)C5=O)on4)n3)n2)CC1", "< 50 nM"],
  ["C[C@H](Nc1nccc(-c2cccc(-c3cc([C@]4(O)CCN(C)C4=O)on3)n2)n1)C(=O)N1CC(F)(F)C1", "50 to 500 nM"],
  ["CN1CC[C@@](O)(c2cc(-c3cccc(-c4ccnc(Nc5ccnc(N6CCOCC6)c5)n4)n3)no2)C1=O", "< 50 nM"]
]}

Consider the record given below.
[in] GET /values?readout=IC50&item= `CN1CC[C@@](O)(c2cc(-c3cccc(-c4ccnc(N[C@H](CO)c5ccccc5)n4)n3)no2)C1=O`
[out] 50 to 500 nM

Values compiled from patent US20250282768A1.
